meta.source: patent US8501446B2

Please consider the recorded Ki for full length Aurora-A (AA 1-403) (Homo sapiens) in what follows.

Some entries whose results are on file:
* CC(=O)N1[C@H](C)CN(c2cc(C(N)=O)cc(-c3c[nH]c4ncc(Cl)cc34)n2)C[C@@H]1C | < 500 nM
* CC(C)NC(=O)[C@H](C)Nc1nc(-c2c[nH]c3ncc(Cl)cc23)ncc1F | < 500 nM
* O=Cc1ccc(-c2c[nH]c3ncc(-c4ccccc4)cc23)cc1 | < 500 nM
* CC(=O)N1[C@H](C)CN(c2cccc(-c3c[nH]c4ncc(NC(=O)c5ccccc5F)cc34)n2)C[C@@H]1C | 500 to 5000 nM
* CC(=O)N1[C@H](C)CN(c2cccc(-c3c[nH]c4ncc(NC(=O)/C=C/Cl)cc34)n2)C[C@@H]1C | 500 to 5000 nM

-- ask Give the reported Ki for Cc1cc(N[C@@H](C)C(=O)NCCNS(C)(=O)=O)nc(-c2c[nH]c3ncc(Cl)cc23)n1 (system: full length Aurora-A (AA 1-403) (Homo sapiens)).
-- reply < 500 nM

-- ask Give the reported Ki for COc1cccc([C@H](C)Nc2nc(-c3c[nH]c4ncc(Cl)cc34)ncc2F)c1 (system: full length Aurora-A (AA 1-403) (Homo sapiens)).
-- reply < 500 nM

###

Study System: ROCK I (AA 6-553) (Homo sapiens, UniProt Q13464)
Sequence (Q13464 6-553, species assumed): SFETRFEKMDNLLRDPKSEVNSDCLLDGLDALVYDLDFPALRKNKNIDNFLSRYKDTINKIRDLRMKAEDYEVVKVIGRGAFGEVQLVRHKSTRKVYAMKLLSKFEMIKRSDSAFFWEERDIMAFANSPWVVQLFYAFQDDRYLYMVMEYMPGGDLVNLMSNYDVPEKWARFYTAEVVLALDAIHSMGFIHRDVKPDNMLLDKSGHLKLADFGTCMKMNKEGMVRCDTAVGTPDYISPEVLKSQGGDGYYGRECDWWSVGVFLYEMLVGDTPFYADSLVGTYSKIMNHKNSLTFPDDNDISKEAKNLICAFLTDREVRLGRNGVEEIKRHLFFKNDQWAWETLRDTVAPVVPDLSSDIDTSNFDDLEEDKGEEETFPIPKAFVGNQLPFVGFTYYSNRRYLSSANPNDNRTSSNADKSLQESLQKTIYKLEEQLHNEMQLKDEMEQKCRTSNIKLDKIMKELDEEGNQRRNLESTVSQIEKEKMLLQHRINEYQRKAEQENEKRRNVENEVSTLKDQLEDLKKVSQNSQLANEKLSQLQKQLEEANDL
Reported Metric: Ki

Some entries whose results are on file:
• Fc1cnc(-c2c[nH]c3ncc(Cl)cc23)nc1NCC1CCNCC1 = < 500 nM
• CNC(=O)c1cc(N[C@@H](C)c2ccc(F)cc2)nc(-c2c[nH]c3ncc(Cl)cc23)n1 = 500 to 5000 nM
• CC(=O)N1[C@H](C)CN(c2cccc(-c3c[nH]c4ncc(NC(=O)CN5CCNCC5)cc34)n2)C[C@@H]1C = 500 to 5000 nM
• CC(=O)N1[C@H](C)CN(c2cccc(-c3c[nH]c4ncc(C(=O)NCCCN5CCN(C)CC5)cc34)n2)C[C@@H]1C = 500 to 5000 nM
• CCOc1cnc2[nH]cc(-c3cccc(N4C[C@@H](C)N(C(C)=O)[C@@H](C)C4)n3)c2c1 = 500 to 5000 nM

-- ask Item COc1cccc(-c2c[nH]c3ncc(Cl)cc23)n1 has what recorded Ki?
-- reply 500 to 5000 nM

-- ask Item Fc1cnc(-c2c[nH]c3ncc(Cl)cc23)nc1NC1CCNCC1 has what recorded Ki?
-- reply < 500 nM

-- ask Item CC(=O)N1[C@H](C)CN(c2cccc(-c3c[nH]c4ncc(F)cc34)n2)C[C@@H]1C has what recorded Ki?
-- reply < 500 nM

-- ask Item CC(=O)N1[C@H](C)CN(c2cc(C#N)cc(-c3c[nH]c4ncc(Cl)cc34)n2)C[C@@H]1C has what recorded Ki?
-- reply 500 to 5000 nM

###

Study System: ROCK (Homo sapiens, UniProt Q13464)
Sequence (Q13464 whole entry): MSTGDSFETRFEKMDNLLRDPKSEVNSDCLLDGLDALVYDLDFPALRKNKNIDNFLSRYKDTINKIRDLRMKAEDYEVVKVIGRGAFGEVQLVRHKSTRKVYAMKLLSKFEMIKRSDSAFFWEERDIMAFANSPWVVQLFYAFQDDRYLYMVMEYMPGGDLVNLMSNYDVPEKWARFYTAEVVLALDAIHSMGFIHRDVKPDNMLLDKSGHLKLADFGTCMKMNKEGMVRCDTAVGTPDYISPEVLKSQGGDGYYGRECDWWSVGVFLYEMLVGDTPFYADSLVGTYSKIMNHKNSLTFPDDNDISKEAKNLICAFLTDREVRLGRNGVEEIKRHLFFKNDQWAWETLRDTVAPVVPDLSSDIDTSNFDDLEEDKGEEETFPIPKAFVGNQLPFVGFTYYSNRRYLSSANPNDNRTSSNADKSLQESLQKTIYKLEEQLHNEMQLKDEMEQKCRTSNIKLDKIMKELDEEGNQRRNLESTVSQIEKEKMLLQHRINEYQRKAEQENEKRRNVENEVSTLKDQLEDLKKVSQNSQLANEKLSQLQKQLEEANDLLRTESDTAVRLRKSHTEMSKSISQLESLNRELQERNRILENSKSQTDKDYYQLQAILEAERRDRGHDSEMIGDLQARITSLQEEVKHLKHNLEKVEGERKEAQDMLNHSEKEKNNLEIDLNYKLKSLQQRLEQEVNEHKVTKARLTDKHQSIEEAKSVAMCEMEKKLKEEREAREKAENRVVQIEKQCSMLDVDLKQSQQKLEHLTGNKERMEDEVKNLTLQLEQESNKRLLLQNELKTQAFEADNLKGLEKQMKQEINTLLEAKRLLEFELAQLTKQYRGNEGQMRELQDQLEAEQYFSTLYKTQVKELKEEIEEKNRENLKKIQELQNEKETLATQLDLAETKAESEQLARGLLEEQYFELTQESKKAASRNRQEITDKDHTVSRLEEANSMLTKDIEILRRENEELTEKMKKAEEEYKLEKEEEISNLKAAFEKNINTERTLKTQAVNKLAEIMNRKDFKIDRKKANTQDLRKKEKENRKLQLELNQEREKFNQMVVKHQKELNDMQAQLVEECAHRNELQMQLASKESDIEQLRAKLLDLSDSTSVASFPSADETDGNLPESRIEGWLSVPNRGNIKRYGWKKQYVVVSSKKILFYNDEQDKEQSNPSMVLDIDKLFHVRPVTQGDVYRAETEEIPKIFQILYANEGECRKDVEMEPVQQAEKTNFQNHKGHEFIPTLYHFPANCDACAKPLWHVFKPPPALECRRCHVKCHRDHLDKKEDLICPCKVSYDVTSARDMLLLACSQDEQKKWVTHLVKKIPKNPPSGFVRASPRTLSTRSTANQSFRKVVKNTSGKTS
Protocol Summary: ROCK inhibition assay, standard radioactive enzyme assay ("33P")
Type: biochemical
pKi: −log10 of the molar value.
Consider the following compounds and their measured pKi readings.

Some entries whose results are on file:
* CC(=O)N1CCCN(c2nccc(-c3c[nH]c4ncc(C(N)=O)cc34)n2)CC1 [Compound 1] | 5.30 to 6.30
* C[C@@H]1CCNCC1N(C)c1cc(-c2c[nH]c3ncccc23)ncn1 (some centres unmarked) [Compound 17] | > 6.30
* Brc1cnc2[nH]c(-c3ccccc3)c(-c3ccc(N4CCOCC4)cc3)c2c1 [Compound 217] | 5.30 to 6.30
* COc1cccc(-c2c[nH]c3ncc(-c4ccccc4)cc23)c1 [Compound 214] | 5.30 to 6.30
* CCOc1cccc(-c2c[nH]c3ncc(-c4ccccc4)cc23)c1 [Compound 215] | 5.30 to 6.30

-- ask Give the reported pKi for COc1cnc2[nH]cc(-c3cc(NCc4ccccc4)ncn3)c2c1 [Compound 12] (system: ROCK (Homo sapiens, UniProt Q13464)).
-- reply > 6.30

-- ask Give the reported pKi for COc1ccc(OC)c(-c2c[nH]c3ncc(-c4ccccc4)cc23)c1 [Compound 216] (system: ROCK (Homo sapiens, UniProt Q13464)).
-- reply 5.30 to 6.30

###

Study System: JAK2 (Homo sapiens)
Sequence (O60674 whole entry, species assumed): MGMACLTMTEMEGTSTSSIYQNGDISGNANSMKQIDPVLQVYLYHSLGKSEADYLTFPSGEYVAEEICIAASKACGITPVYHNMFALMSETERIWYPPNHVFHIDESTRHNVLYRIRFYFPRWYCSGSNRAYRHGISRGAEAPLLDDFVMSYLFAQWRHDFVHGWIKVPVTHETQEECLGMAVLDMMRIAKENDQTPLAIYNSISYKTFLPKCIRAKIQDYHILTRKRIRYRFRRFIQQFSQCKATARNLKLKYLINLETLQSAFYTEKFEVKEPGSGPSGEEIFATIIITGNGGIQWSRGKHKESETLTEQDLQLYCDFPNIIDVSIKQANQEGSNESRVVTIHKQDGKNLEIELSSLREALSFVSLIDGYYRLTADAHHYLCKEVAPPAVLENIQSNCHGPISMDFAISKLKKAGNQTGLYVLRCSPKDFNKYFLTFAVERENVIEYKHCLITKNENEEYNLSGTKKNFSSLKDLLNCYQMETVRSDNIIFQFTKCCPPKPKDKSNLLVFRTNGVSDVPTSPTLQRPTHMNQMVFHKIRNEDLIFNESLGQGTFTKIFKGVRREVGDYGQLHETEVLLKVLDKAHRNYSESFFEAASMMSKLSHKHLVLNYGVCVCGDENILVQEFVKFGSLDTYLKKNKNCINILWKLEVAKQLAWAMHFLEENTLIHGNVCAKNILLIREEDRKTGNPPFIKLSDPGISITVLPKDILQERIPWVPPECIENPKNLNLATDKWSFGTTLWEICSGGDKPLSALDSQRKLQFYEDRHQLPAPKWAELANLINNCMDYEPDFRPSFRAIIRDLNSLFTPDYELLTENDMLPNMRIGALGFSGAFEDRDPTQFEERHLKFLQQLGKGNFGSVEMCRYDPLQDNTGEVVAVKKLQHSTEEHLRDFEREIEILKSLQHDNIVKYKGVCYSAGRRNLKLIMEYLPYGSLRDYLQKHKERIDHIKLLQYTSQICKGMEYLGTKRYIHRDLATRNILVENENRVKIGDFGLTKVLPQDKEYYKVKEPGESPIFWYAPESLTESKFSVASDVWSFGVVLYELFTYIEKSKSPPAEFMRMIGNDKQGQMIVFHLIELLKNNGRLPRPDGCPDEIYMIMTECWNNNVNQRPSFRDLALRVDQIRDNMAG
Protocol Summary: JAK2 inhibition assay (radioactive enzyme assay, as for JAK3)
Type: biochemical
Settings: average Ki if more than one value determined
Reported Metric: Ki

Some entries whose results are on file:
- CC(=O)N1CCCN(c2nccc(-c3c[nH]c4ncc(Cl)cc34)n2)CC1: < 500 nM
- CC(=O)N1CCCN(c2cccc(-c3c[nH]c4ncc(C(=O)NCCCN5CCN(C)CC5)cc34)n2)CC1: < 500 nM
- C[C@@H](CO)Nc1cccc(-c2c[nH]c3ncc(Cl)cc23)n1: < 500 nM
- COc1cnc2[nH]cc(-c3cc(NCc4ccccc4)ncn3)c2c1: < 500 nM
- CC(=O)N1[C@H](C)CN(c2cccc(-c3c[nH]c4ncc(NC(=O)Oc5ccc(C)cc5)cc34)n2)C[C@@H]1C: < 500 nM

-- ask Item CC(=O)N1[C@H](C)CN(c2cccc(-c3c[nH]c4ncc(C(=O)NC5CCCCC5)cc34)n2)C[C@@H]1C has what recorded Ki?
-- reply < 500 nM

-- ask Item O=C(O)c1ccc(-c2c[nH]c3ncc(Cl)cc23)nc1 has what recorded Ki?
-- reply < 500 nM

-- ask Item Clc1cnc2[nH]cc(-c3cccc4cccnc34)c2c1 has what recorded Ki?
-- reply 500 to 5000 nM

-- ask Item CC(=O)N1[C@H](C)CN(c2cccc(-c3c[nH]c4ncc(NC(=O)C5CCCC5)cc34)n2)C[C@@H]1C has what recorded Ki?
-- reply < 500 nM

-- ask Item O=C(O)c1ccc(-c2c[nH]c3ncc(Cl)cc23)cc1 has what recorded Ki?
-- reply < 500 nM

-- ask Item CCOC(=O)c1cnc2[nH]cc(-c3cccc(N4C[C@@H](C)N(C(C)=O)[C@@H](C)C4)n3)c2c1 has what recorded Ki?
-- reply < 500 nM

-- ask Item CCc1cnc(-c2c[nH]c3ncc(Cl)cc23)nc1N[C@@H](C)c1ccc(F)cc1 has what recorded Ki?
-- reply < 500 nM

-- ask Item CC(=O)N1[C@H](C)CN(c2cccc(-c3c[nH]c4ncc(F)cc34)n2)C[C@@H]1C has what recorded Ki?
-- reply < 500 nM

###

Consider the following compounds and their measured pKi readings.
Study System: full length Aurora-A (AA 1-403) (Homo sapiens, UniProt O14965)
Sequence (O14965 1-403): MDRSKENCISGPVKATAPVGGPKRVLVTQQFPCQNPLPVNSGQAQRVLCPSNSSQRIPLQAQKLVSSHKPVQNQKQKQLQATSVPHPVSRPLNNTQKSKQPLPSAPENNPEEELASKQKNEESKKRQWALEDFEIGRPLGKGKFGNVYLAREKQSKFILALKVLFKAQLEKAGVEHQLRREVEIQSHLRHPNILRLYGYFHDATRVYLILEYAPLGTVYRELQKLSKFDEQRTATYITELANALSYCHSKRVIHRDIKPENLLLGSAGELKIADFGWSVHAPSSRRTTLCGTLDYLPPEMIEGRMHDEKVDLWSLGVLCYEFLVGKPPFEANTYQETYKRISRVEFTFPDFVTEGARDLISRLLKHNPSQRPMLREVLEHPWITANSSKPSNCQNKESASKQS
pKi: −log10 of the molar value.

Some entries whose results are on file:
- Cc1cc(N[C@@H](C)c2ccc(F)cc2)nc(-c2c[nH]c3ncc(Cl)cc23)n1 [Compound 324]: > 6.30
- CC(=O)N1[C@H](C)CN(c2cccc(-c3c[nH]c4ncc(NC(=O)C5=CCCC5)cc34)n2)C[C@@H]1C [Compound 157]: 5.30 to 6.30
- CC(C)Oc1cnc(-c2c[nH]c3ncc(Cl)cc23)nc1N[C@@H](C)C(=O)NCC(F)(F)F [Compound 410]: > 6.30
- O=C(Nc1cccc(-c2c[nH]c3ncc(Cl)cc23)n1)c1cccnc1 [Compound 296]: > 6.30
- C/C=C(\C)C(=O)Nc1cnc2[nH]cc(-c3cccc(N4C[C@@H](C)N(C(C)=O)[C@@H](C)C4)n3)c2c1 [Compound 161]: 5.30 to 6.30
- Fc1cnc2[nH]cc(-c3cccc(NCc4ccccc4)n3)c2c1 [Compound 48]: > 6.30

-- ask Give the reported pKi for CC(=O)N1[C@H](C)CN(c2cccc(-c3c[nH]c4ncc(NC(=O)C5CCCC5)cc34)n2)C[C@@H]1C [Compound 166] (system: full length Aurora-A (AA 1-403) (Homo sapiens, UniProt O14965)).
-- reply 5.30 to 6.30

###

Study System: Aurora-B (Homo sapiens, UniProt Q96GD4)
Sequence (Q96GD4 whole entry): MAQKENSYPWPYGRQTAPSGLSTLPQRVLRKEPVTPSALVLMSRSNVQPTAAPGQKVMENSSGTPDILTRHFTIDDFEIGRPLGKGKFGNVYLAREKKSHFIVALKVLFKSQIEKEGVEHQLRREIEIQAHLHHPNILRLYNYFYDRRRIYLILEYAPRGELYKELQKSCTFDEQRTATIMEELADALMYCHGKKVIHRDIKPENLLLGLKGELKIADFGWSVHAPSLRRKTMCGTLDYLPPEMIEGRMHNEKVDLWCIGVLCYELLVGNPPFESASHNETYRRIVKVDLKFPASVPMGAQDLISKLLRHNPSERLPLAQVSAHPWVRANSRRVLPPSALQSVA
Protocol Summary: Aurora-B inhibition assay, radioactive assay
Format: biochemical
Settings: average Ki if more than one value determined
Reported Metric: Ki

-- ask Item Clc1ccc(CNc2cccc(-c3c[nH]c4ncc(Cl)cc34)n2)cc1 has what recorded Ki?
-- reply 500 to 5000 nM

-- ask Item CNC(=O)[C@H](COC)Nc1nc(-c2c[nH]c3ncc(Cl)cc23)ncc1F has what recorded Ki?
-- reply < 500 nM

-- ask Item CCS(=O)(=O)NCCNC(=O)[C@H](C)Nc1nc(-c2c[nH]c3ncc(Cl)cc23)ncc1F has what recorded Ki?
-- reply 500 to 5000 nM

-- ask Item C[C@H](Nc1nc(-c2c[nH]c3ncc(Cl)cc23)ncc1F)C(=O)NCC[C@H]1CCCN1C has what recorded Ki?
-- reply 500 to 5000 nM

-- ask Item C[C@H](Nc1cc(N2CCNCC2)nc(-c2c[nH]c3ncc(Cl)cc23)n1)C(=O)NCC(F)(F)F has what recorded Ki?
-- reply 500 to 5000 nM

-- ask Item CC(=O)NCCNC(=O)[C@H](C)Nc1nc(-c2c[nH]c3ncc(Cl)cc23)ncc1F has what recorded Ki?
-- reply < 500 nM

-- ask Item C[C@H](Nc1nc(-c2c[nH]c3ncc(Cl)cc23)ncc1F)C(=O)NCCc1ccccc1 has what recorded Ki?
-- reply 500 to 5000 nM

-- ask Item C[C@H](Nc1nc(-c2c[nH]c3ncc(Cl)cc23)ncc1C(F)(F)F)c1ccc(F)cc1 has what recorded Ki?
-- reply < 500 nM

-- ask Item Fc1cnc(-c2c[nH]c3ncc(Cl)cc23)nc1NCc1ccccn1 has what recorded Ki?
-- reply < 500 nM

-- ask Item Cc1cc(N[C@@H](C)C(=O)NCCNS(C)(=O)=O)nc(-c2c[nH]c3ncc(Cl)cc23)n1 has what recorded Ki?
-- reply < 500 nM

-- ask Item Clc1ccc(CNc2ccnc(-c3c[nH]c4ncc(Cl)cc34)n2)cc1 has what recorded Ki?
-- reply < 500 nM

-- ask Item CC[C@H](Nc1nc(-c2c[nH]c3ncc(Cl)cc23)ncc1F)C(=O)NC has what recorded Ki?
-- reply < 500 nM

-- ask Item Fc1cnc(-c2c[nH]c3ncc(Cl)cc23)nc1NCC1CCNCC1 has what recorded Ki?
-- reply < 500 nM

-- ask Item Fc1cnc(-c2c[nH]c3ncc(Cl)cc23)nc1NC1CCOCC1 has what recorded Ki?
-- reply < 500 nM

-- ask Item Clc1cnc2[nH]cc(-c3cccc(NC4CCCCC4)n3)c2c1 has what recorded Ki?
-- reply 500 to 5000 nM

-- ask Item CNc1nc(-c2c[nH]c3ncc(Cl)cc23)nc(N[C@@H](C)C(=O)NCC(F)(F)F)c1C(C)C has what recorded Ki?
-- reply 500 to 5000 nM

-- ask Item C[C@H](Nc1nc(-c2c[nH]c3ncc(Cl)cc23)ncc1N)c1ccc(F)cc1 has what recorded Ki?
-- reply < 500 nM
